Cited source: the RNAGym collection of RNA variant scans (doi:10.7554/elife.90254)

Parameter: self-cleavage. Scope: all listed entries.
B1: LINE1-full (parent)
chain: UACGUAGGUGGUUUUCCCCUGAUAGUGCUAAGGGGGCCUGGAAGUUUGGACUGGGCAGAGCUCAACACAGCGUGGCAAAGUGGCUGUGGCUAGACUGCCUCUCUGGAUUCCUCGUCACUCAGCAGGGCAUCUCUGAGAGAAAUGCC

variants of: B1; assay: self-cleavage, relative activity (ratio to wild type); higher = more cleavage; in vitro, sequencing; the parent is a self-cleaving ribozyme
// no unit string in output, number only

Recorded self-cleavage, per entry:
- construct sequence: "UACGUAGGUGGUUUUCCCCUGAUAGUGCUAAGGGGGCCUAGAAGUUUGGACUGGGCAGAGCUCAACACAGCGUGGCAAAGUGGCGGUGGCUAGACUGCCUCUCUGGAUUCCUCGUCACUCAGCAGGGCAUCUCUGAGAGAAAUGCC"
  measurement: 0.04
- construct sequence: "UACGUAGGUGGUUUUCCCCUGAUAGUGCUAAGGGGGCCUGGAAGUUUGGACUGGGCAGAGCCCAACACAGCGUGGCAAAGUGGCUGUGGCUAGACUGCCUCUCUGGAUUCCUCGUCACUCAGCAGGGCAUCUCUGAGAGGAAUGCC"
  measurement: 0.04
- construct sequence: "UACGUAGGUGGUUUUCCCCUGAUAGUGCUAAGGGGGCCUGGAGGUUUGGACUGGGCAGAGCUCAACACAGCGUGGCAAAGUGGCUGUGGCUAGACUGCCUCUCUGGAUUCCUCGUCACUCAGCAGGGCAUCUCUGAGAGAACUGCC"
  measurement: 1

The variant UACGUAGGUGGUUUUCCCCUGAUAGUGCUAAGGGGGCCUGGAAGUUUGGACUGGGCAGAGCUCAACACAGCGUGGCAAAGUGGCUGAGGCUAGACUGCCUCUCUGGAUUCCUCGUCACUCAGCAGGGCAUCUCUGAGAGAAAUGCU showed self-cleavage equal to 0.09

Measured self-cleavage of UACGUAGGUGGUUUUCCCCUGAUAGUGCUAAGGGGGCCUGGAAGUUUGGACUGGGCAGAGCCCAACACAGCGUGGCAAAGUGGCUGUGGCUAGACUGCCUCUUUGGAUUCCUCGUCACUCAGCAGGGCAUCUCUGAGAGAAAUGCC : 0.03
